Tested on: Escherichia coli TOP10
Experiment: shrunken log2 fold change of peptide-encoding DNA abundance (4.5 h post-induction vs induction); higher = less antimicrobial activity (less host growth inhibition)
Conditions: time post-induction: 4.5 h; library: site-saturation at positions 5, 18, 19, 20
// class assignment uses shrunken log2 fold change with these ranges: low = under -0.1, moderate = from -0.1 up to 0.2, high = 0.2 and over

> print(dat)
                  seq.text            study.target  classification
1  RRIRDRPPRLPRPRPRPSMFPRP  Escherichia coli TOP10             low
2  RRIRSRPPRLPRPRPRPYHTPRP  Escherichia coli TOP10             low
3  RRIRGRPPRLPRPRPRPIHIPRP  Escherichia coli TOP10            high
4  RRIRCRPPRLPRPRPRPLLAPRP  Escherichia coli TOP10            high
5  RRIRMRPPRLPRPRPRPYKRPRP  Escherichia coli TOP10        moderate
6  RRIRKRPPRLPRPRPRPAEIPRP  Escherichia coli TOP10             low
7  RRIRARPPRLPRPRPRPQQQPRP  Escherichia coli TOP10            high
8  RRIRARPPRLPRPRPRPFVGPRP  Escherichia coli TOP10        moderate
9  RRIRNRPPRLPRPRPRPDGRPRP  Escherichia coli TOP10             low

====

Below: a set of entries, each annotated with reported shrunken log2 fold change.
Test system: Escherichia coli TOP10;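 also: peptides expressed intracellularly from a pBAD plasmid library in pooled LB shake-flask culture, induced with 0.3% L-arabinose, DNA abundance read by NGS, three biological replicates, DESeq2 with apeglm shrinkage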
Experiment: shrunken log2 fold change of peptide-encoding DNA abundance (4.5 h post-induction vs induction); higher = less antimicrobial activity (less host growth inhibition)
Conditions: time post-induction: 4.5 h; library: site-saturation at positions 5, 18, 19, 20
Result type: shrunken log2 fold change

> print(dat)
                   seq.text     value
 1  RRIRPRPPRLPRPRPRPKKWPRP   -0.0589
 2  RRIRARPPRLPRPRPRPVRTPRP      1.06
 3  RRIRFRPPRLPRPRPRPCHQPRP    -0.188
 4  RRIRLRPPRLPRPRPRPKESPRP    0.0595
 5  RRIRKRPPRLPRPRPRPSTCPRP   -0.0517
 6  RRIRHRPPRLPRPRPRPIGFPRP   -0.0167
 7  RRIRYRPPRLPRPRPRPLTDPRP    -0.134
 8  RRIRHRPPRLPRPRPRPNMSPRP    -0.245
 9  RRIRRRPPRLPRPRPRPNYAPRP    0.0933
10  RRIRCRPPRLPRPRPRPKNWPRP     0.331
11  RRIRDRPPRLPRPRPRPKHFPRP     -0.15
12  RRIRGRPPRLPRPRPRPCWDPRP     0.217
13  RRIRFRPPRLPRPRPRPKEWPRP  -0.00364
14  RRIRRRPPRLPRPRPRPNVHPRP    -0.203
15  RRIRRRPPRLPRPRPRPYYAPRP    -0.561
16  RRIRIRPPRLPRPRPRPRPEPRP      0.11
17  RRIRLRPPRLPRPRPRPVVSPRP    -0.054
18  RRIRSRPPRLPRPRPRPLEEPRP     0.411
19  RRIRERPPRLPRPRPRPWFSPRP    -0.336
20  RRIRWRPPRLPRPRPRPCSMPRP    -0.565
21  RRIRVRPPRLPRPRPRPYWAPRP   -0.0239
22  RRIRARPPRLPRPRPRPSFTPRP     0.582
23  RRIRARPPRLPRPRPRPHYVPRP    -0.255
